Measured IC50 accompanies every entry in the list below.
target: Phosphodiesterase (Bos taurus); assay: Inhibition Assay: The PDE assay was performed according to a modified method referred to a report of Kotera et al. (Kotera et al., Biochem. Pharmacol., vol. 60, pp. 1333-1341, 2000), by the radiolabeled nucleotide method.Specifically, the measurements of the inhibitory activities were carried out in the following method.(Method) The test compounds were dissolved in dimethyl sulfoxide (DMSO). 2 uL of the compound solution was added to 96 well plate, and the reaction mixture (20 uL of PDE enzyme solution in 50 mM Tris-HCl, pH 8.0, 40 uL of the assay buffer (50 mM Tris-HCl, pH 8.0, 2 mM MgCl2, 0.07% 2-mercaptoethanol, and 0.825 mg/mL bovine serum albumin), and 20 uL of 1 mg/mL snake venom in 50 mM Tris-HCl, pH8.0) was added to the 96 well plate. The enzyme reaction was started by adding and mixing with substrate solution of 20 L containing approximate 35 nM 3H-cAMP in 50 mM Tris-HCl, pH 8.0. The final concentration of cAMP in the reaction mixtures was 7 nM.
Sequence (F1MPW5 whole entry): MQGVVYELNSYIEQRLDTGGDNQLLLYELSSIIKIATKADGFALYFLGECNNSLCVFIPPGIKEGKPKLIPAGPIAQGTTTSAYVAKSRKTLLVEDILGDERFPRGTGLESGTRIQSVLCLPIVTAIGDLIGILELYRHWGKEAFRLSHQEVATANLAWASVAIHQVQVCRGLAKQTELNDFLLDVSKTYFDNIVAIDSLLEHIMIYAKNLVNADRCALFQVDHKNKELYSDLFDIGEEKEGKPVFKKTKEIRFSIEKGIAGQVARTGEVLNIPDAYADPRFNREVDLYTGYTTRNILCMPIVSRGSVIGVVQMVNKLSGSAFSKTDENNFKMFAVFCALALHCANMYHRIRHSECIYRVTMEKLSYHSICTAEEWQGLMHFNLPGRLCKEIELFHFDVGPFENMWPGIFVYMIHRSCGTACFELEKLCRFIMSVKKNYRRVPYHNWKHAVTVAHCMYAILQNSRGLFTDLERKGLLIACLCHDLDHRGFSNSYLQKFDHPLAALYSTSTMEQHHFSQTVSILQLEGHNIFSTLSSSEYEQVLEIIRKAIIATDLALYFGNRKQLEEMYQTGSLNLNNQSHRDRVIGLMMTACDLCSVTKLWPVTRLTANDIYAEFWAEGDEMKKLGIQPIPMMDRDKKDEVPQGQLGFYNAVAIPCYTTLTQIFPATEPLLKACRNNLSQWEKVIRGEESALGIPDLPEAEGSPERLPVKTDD
Give just the numeric value; nM need not be written.

>  <structure_smiles_string>
Cc1nc2ccccc2nc1-c1cc2nc(N3CC=CC3)cc(NC3CCOCC3)n2n1

>  <IC50 (nM)>
0.2

$$$$
>  <structure_smiles_string>
Cc1nc(C)c(-c2cc3nc(N4CCCC4)cc(N(C)C4CCOCC4)n3n2)nc1C

>  <IC50 (nM)>
0.48

$$$$
>  <structure_smiles_string>
Cc1nc2ccccc2nc1-c1cc2nc(C3=CCCC3)cc(NC3CCOCC3)n2n1

>  <IC50 (nM)>
0.22

$$$$
>  <structure_smiles_string>
Cc1nc2ccccc2nc1-c1cc2nc(N3CC[C@@H](F)C3)cc(NC3CC3)n2n1

>  <IC50 (nM)>
0.87

$$$$

# lookup: IC50 of Cc1nc2ccccc2nc1-c1cc2nc(N3CC[C@@H](F)C3)cc(NCC(C)(C)O)n2n1
0.32

Fill blank: measured IC50 of the compound Cc1ccc2nc(C)c(-c3cc4nc(N5CC(O)C5)cc(NC5CCOCC5)n4n3)nc2c1 is ____.
1.08

Quick check: IC50 of CC(=O)N1CCC(Nc2cc(N3CCCC3)nc3cc(-c4nc5cc(C)ccc5nc4C)nn23)CC1 ?
0.044

Using the record for CCCN1CCC(Nc2cc(N3CCCC3)nc3cc(-c4nc5cc(C)ccc5nc4C)nn23)CC1 , report its IC50.
0.15

Can you share its IC50? I mean this compound: Cc1nc2ccccc2nc1-c1cc2nc(N3CCC[C@H]3CO)cc(N[C@@H]3CCCOC3)n2n1
0.39
